Measured values drawn from ChEMBL document CHEMBL1201862 for this set.

# GI50 per entry
# Tested on: HCT-116
# METHOD NOTES: NCI tumour cell line growth inhibition, 48 h
Activity calls are given as the source filed them. Cut-off read from the data, not from the text of the source: active = GI50 up to about 1.1 µM and inactive = higher.

O=C(O)CSc1nnc(-c2ccccc2O)[nH]1 :: > 100 µM (inactive)
CC(=O)NC1C(OCc2ccccc2)OC(CO)C(O)C1OC(C)C(=O)NC(C(=O)NC(CCC(=O)NCCCC(=O)Nc1ccc2c(c1)CN1C(=O)c3ccccc3C1=N2)C(N)=O)C(C)C (stereo not given) :: > 100 µM (inactive)
O=C(CC(C(=O)c1cccs1)c1cccs1)c1ccccc1Cl (stereo not given) :: 52.1 µM (inactive)
CC(C)=C=CC(C)(C)NS(=O)(=O)NC(C)(C)C=C=C(C)C :: > 100 µM (inactive)
CC(C)C12CCC3(CCC4C(C)(C(=O)O)CCCC4(C)C3C1)C(CN)C2 (stereo not given) :: 17.3 µM (inactive)

Continue with the next compound.
Incoming: Item under review: `C[C@]12CCC(=O)[C@@H](CCC3=CC(=O)C=CC3=O)[C@@H]1CCC2=O` . Reported GI50?
Outgoing: 15.5 µM (inactive)

====

# Tested on: HT-29
# METHOD NOTES: NCI tumour cell line growth inhibition, 48 h
The source made the active and inactive calls. Cut-off read from the data, not from the text of the source: active = GI50 up to about 1.1 µM and inactive = higher.
Write down one outcome, taken from True (active), False (inactive)

The examples below pair each entry with its known result.
COc1cc2cc(C(=O)N3CC(CCl)c4c3cc(O)c3ccccc43)[nH]c2c(OC)c1OC (stereo not given) :: True
CCOC(=O)Nc1ccc(S(=O)(=O)NCCCl)cc1.CCOC(=O)Nc1ccc(S(=O)(=O)NCCCl)cc1.O=C(O)c1ccc(/N=N/Cl)cc1O :: False

Kindly review the next compound as well.
Incoming: Can you look up the reported call for `Cc1cc(C)nc(NS(=O)(=O)c2ccc(NC(=O)c3ccc4nc5ccccc5c(Nc5ccc(S(N)(=O)=O)cc5)c4c3)cc2)n1` for me?
Outgoing: False

====

# Test system: SR
# METHOD NOTES: NCI tumour cell line growth inhibition, 48 h
Calls of active or inactive are those of the source. Cut-off read from the data, not from the text of the source: active = GI50 up to about 1.1 µM and inactive = higher.
MEASURED METRIC: GI50

Record excerpt, results attached:
Cn1c(=O)c2c(nc(N3CCOCC3)n2CCCNCC(O)c2ccc(O)c(O)c2)n(C)c1=O (stereo not drawn) :: 10 µM (inactive)
C/C(=N\NS(=O)(=O)c1ccccc1)c1ccc[n+]([O-])n1 :: 32.3 µM (inactive)
CC(=O)OC(C)C1C2=C(C(=O)CC1(C)O)C(=O)c1c(ccc(-c3ccc4c(c3O)C(=O)C3=C(C4=O)C(C(C)OC(C)=O)C(C)(O)CC3=O)c1O)C2=O (stereo not drawn) :: 1.1 µM (active)

Incoming: Item under review: CCC12C=CCN3CCC4(c5cc(C(c6ccc(OC)cc6)C6Cc7ccccc7N6)c(OC)cc5N(C)C4C(O)(C(=O)OC)C1O)C32 (stereo not drawn) . Reported GI50?
Outgoing: 8.04 µM (inactive)

Incoming: Then `Nc1ncnc2c1ncn2[C@@H]1C[C@H](NO)[C@@H](O)[C@H]1O` ?
Outgoing: 3.55 µM (inactive)

====

# System: U-251
# METHOD NOTES: NCI tumour cell line growth inhibition, 48 h
Active and inactive are the calls of the source. Rule as the data show it: active = GI50 up to about 1.1 µM and inactive = higher.
Write down one outcome, taken from t (active), f (inactive)

C=CCc1cc(-c2cc(CC=C)c(O)c(CN(CCCl)CCCl)c2)cc(CN(CCCl)CCCl)c1O :: f
CC(=O)OC1C(C)OC(OC2C[C@](O)(C(C)=O)Cc3c(O)c4c(c(O)c32)C(=O)c2ccccc2C4=O)C(F)C1OC(C)=O (some centres undefined) :: t
OC(CC(CC(O)(C(F)(F)F)C(F)(F)F)=NN=C(CC(O)(C(F)(F)F)C(F)(F)F)CC(O)(C(F)(F)F)C(F)(F)F)(C(F)(F)F)C(F)(F)F :: f

Incoming: Can you look up the reported call for `Cc1nn(-c2ccccc2)c2nc(N3CCOCC3)nnc12` for me?
Outgoing: f

Incoming: Then `Cc1nc2sccn2c1C(=O)NN` ?
Outgoing: f

Incoming: Then `NC(=O)c1nc(-c2ccc(Cl)c(Cl)c2)nc2ccccc12` ?
Outgoing: f

Incoming: Then `O=[N+]([O-])c1cc([N+](=O)[O-])c(Nn2c3ccccc3c3ccccc32)c([N+](=O)[O-])c1` ?
Outgoing: f

Incoming: Then `c1ccc2c(c1)nc1n2sc2nc3ccccc3n21` ?
Outgoing: f

Incoming: Then `COc1ccc(/C=C2\N=C(c3ccccc3)N(Nc3nnc(NN4C(=O)/C(=C/c5ccc(OC)cc5)N=C4c4ccccc4)c4ccccc34)C2=O)cc1` ?
Outgoing: f

====

# GI50 per entry
# Test system: MCF7
# METHOD NOTES: NCI tumour cell line growth inhibition, 48 h
Calls of active or inactive are those of the source. Rule as the data show it: active = GI50 up to about 1.1 µM and inactive = higher.

Record excerpt, results attached:
C/C(=C\CCC1=CC(=O)OC1)CC[C@@H]1[C@H]2C(=O)CC(C)[C@@]3(C)CC[C@]1(C)[C@@]23C (some centres undefined) :: > 10 µM (inactive)
Cc1ccc(S(=O)(=O)N2CCN(S(=O)(=O)c3ccc(C)cc3)Cc3ccccc3C2)cc1 :: 50.5 µM (inactive)
CCCCCCCCCCCCCCCCCCOCC(COCCOCC[N+]1(CCCCCC(=O)[O-])CCCC1)Oc1ncccn1 (centres undefined) :: 4.45 µM (inactive)

Incoming: Item under review: `COC(=O)c1sc(=S)sc1SCc1ccc(CSc2sc(=S)sc2C(=O)OC)cc1` . Reported GI50?
Outgoing: > 100 µM (inactive)

Incoming: Then CC(=O)OC(C)C1C2=C(C(=O)CC1(C)O)C(=O)c1c(ccc(-c3ccc4c(c3O)C(=O)C3=C(C4=O)C(C(C)OC(C)=O)C(C)(O)CC3=O)c1O)C2=O (centres undefined) ?
Outgoing: 1.53 µM (inactive)

Incoming: Then `Cn1c(N/N=C/c2ccccc2)nc(-c2ccc3c(c2)OCO3)c(C#N)c1=O` ?
Outgoing: > 100 µM (inactive)

Incoming: Then `CCOc1cc(/C=N\O)cc(/C=N/O)c1O` ?
Outgoing: 9.68 µM (inactive)

Incoming: Then CC1(C)CCc2c(ccc(C(=O)/C=C/c3ccc(O)cc3)c2O)O1 [DORSMANNIN A] ?
Outgoing: 14.2 µM (inactive)

Incoming: Then `Cc1nc2cc(F)c(F)cc2[nH]c1=O` ?
Outgoing: > 100 µM (inactive)

====

# Tested on: SNB-75
# METHOD NOTES: NCI tumour cell line growth inhibition, 48 h
Calls of active or inactive are those of the source. Rule as the data show it: active = GI50 up to about 1.1 µM and inactive = higher.
Write down one outcome, taken from true (1) (active), false (0) (inactive)

The examples below pair each entry with its known result.
CC(=O)Nc1ccc2cc3[nH]c4cc(NC(C)=O)ccc4c3nc2c1 :: false (0)
OC12CCC3(OC4CCCCO4)c4ccccc4C3C1c1ccccc12 (stereo not given) :: false (0)
S=C1c2cc(Cl)ccc2N=C(NC2CCCC2)C2CSCN12 (stereo not given) :: false (0)
COc1cccc(C2c3cc4c(cc3OC3COC(=O)C32)OCO4)c1OC (stereo not given) :: false (0)
Cc1cn(S(=O)(=O)c2ccccc2)c2c(OCc3ccccc3)cc([N+](=O)[O-])cc12 :: false (0)
C/C(=C\COc1ccc2ccc(=O)oc2c1)C1=CC(=O)C(C)(C)O1 :: false (0)

Incoming: Can you look up the reported call for `Cn1c2ccccc2n2c3ncccc3/c(=N/CCCC(=O)O)c(C#N)c12` for me?
Outgoing: false (0)

Incoming: Then O=C(CC(=O)N1N=C(c2ccccc2)C(/N=N/c2ccc(S(=O)(=O)CCOS(=O)(=O)O)cc2)C1=O)Nc1ccc(Cl)cc1 (stereo not given) ?
Outgoing: false (0)

Incoming: Then `COC(=O)Cn1cnc2c(Cl)nc(Nc3ccccc3)nc21` ?
Outgoing: false (0)

Incoming: Then `COC(CNC(=O)CNC(=O)c1ccc(C(F)(F)F)cc1)OC` ?
Outgoing: false (0)

Incoming: Then O=C1CS(=O)(=O)C(c2cccc(Oc3ccccc3)c2)N1c1cccc(Cl)c1Cl (stereo not given) ?
Outgoing: false (0)

Incoming: Then CC1C(O)Oc2cc3c(cc2C1c1ccccc1O)OCO3 (stereo not given) ?
Outgoing: false (0)

Incoming: Then O=C(CC(=O)C(=O)Nc1ccccc1)CC(c1ccccc1)c1c(O)c2ccccc2oc1=O (stereo not given) ?
Outgoing: false (0)

Incoming: Then `CSc1c(C#N)c(O)n(-c2ccc(Cl)cc2)c(=O)c1C#N` ?
Outgoing: false (0)

Incoming: Then O=C1C2=Cc3ccccc3OC2(O)Oc2cc(O)ccc21 (stereo not given) ?
Outgoing: false (0)

Incoming: Then `O=[N+]([O-])c1cc(/C=N/NS(=O)(=O)c2ccc(F)cc2)c(O)c([N+](=O)[O-])c1` ?
Outgoing: false (0)

Incoming: Then `CCOc1cc(/C=N\O)cc(/C=N/O)c1O` ?
Outgoing: false (0)

Incoming: Then C=CCC1C(=O)CC2(C)CC(=O)C(CC=C)C12C (stereo not given) ?
Outgoing: false (0)

Incoming: Then `CCCCC1=C(C(=O)N2CCOCC2)C2(OCCO2)C1=O` ?
Outgoing: false (0)
